assay: NCI Yeast Anticancer Drug Screen. Data for the mlh1 rad18 strain (AID 175); settings: S. cerevisiae mlh1 rad18 strain growth inhibition; at 50.0 µM; stronger effect = higher value
The panel holds about 79,000 compounds, 15% with a hit somewhere; the sample as a whole holds those more often.
measured.endpoint: growth inhibition (%)
The answer is to be given in %; state only the numeric part.

Give the measured growth inhibition of `CC(=O)[O][Ga]([Cl])[O]C(C)=O` .
14.3

Give the measured growth inhibition of `CCOCCOC(=O)c1ccc(C(N)=NC2CCCCC2)cc1` .
-1.4

Give the measured growth inhibition of CC(C)CC(C)N=C1CC2CCC1(C)C2(C)C (configuration not stated) .
-7.05

Give the measured growth inhibition of `COc1cc(/C=C/C(=O)OCCc2ccccc2)ccc1O` .
61

Give the measured growth inhibition of `Cc1ccc(N=Nc2ccc([N+](=O)[O-])cc2)c([N+](=O)[O-])c1` .
-12.6

Give the measured growth inhibition of `[N-]=[N+]=Nc1ccccc1C(=O)NC(=O)Nc1ccccc1` .
-2.1

Give the measured growth inhibition of `COc1ccc2c(ccc3nc(C)[nH]c(=O)c32)c1` .
-6.3

Give the measured growth inhibition of `O=C(Nc1cccc([N+](=O)[O-])c1)Nc1ccccc1F` .
9.55

Give the measured growth inhibition of CCOC(=O)C1(C)OC1c1ccc([N+](=O)[O-])cc1 (configuration not stated) .
-9.85

Give the measured growth inhibition of `CN(C)C(=O)NO` .
-28.4

Give the measured growth inhibition of `COC(=O)[C@H]1O[C@H]1c1cccc[n+]1[O-]` .
-0.9

Give the measured growth inhibition of `O=C1CN(C(=O)c2ccccc2)C(=S)N1` .
4.5

====

assay: NCI Yeast Anticancer Drug Screen. Data for the mec2-1 strain (AID 157); details: S. cerevisiae mec2-1 strain, at 50.0 µM, stronger effect = higher value
The panel holds about 79,000 compounds, 15% with a hit somewhere; the sample as a whole holds those more often.
The label depends only on growth inhibition: TRUE if it is at least -20%, FALSE if it is smaller.

Is the recorded value of growth inhibition equal to or greater than -20% for this compound? CC(=O)OC1OC(C)C(OC(=O)c2ccccc2)C1OC(C)=O (stereo unspecified)
TRUE

Is the recorded value of growth inhibition equal to or greater than -20% for this compound? `COc1ccccc1NC(=O)Oc1ccc(C#N)cc1`
TRUE

Is the recorded value of growth inhibition equal to or greater than -20% for this compound? `COC(=O)C(NC(=O)COc1ccccc1[N+](=O)[O-])C(=O)OC`
TRUE

Is the recorded value of growth inhibition equal to or greater than -20% for this compound? O=C1C2C(Cl)C(Cl)C(Cl)C(Cl)C2C(=O)N1NC1CCC([N+](=O)[O-])CC1[N+](=O)[O-] (stereo unspecified)
TRUE

Is the recorded value of growth inhibition equal to or greater than -20% for this compound? CCC(CC)CC1CCCCC1O (stereo unspecified)
FALSE

====

For each record, write down the corresponding growth inhibition.
assay: NCI Yeast Anticancer Drug Screen. Data for the sgs1 mgt1 strain (AID 161);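 also: 0% = growth of cultures given vehicle only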; details: S. cerevisiae sgs1 mgt1 strain, at 50.0 µM, stronger effect = higher value
This is part of a sample that, as a whole, favours compounds with a hit. Of some 79,000 tested, about 15% had one in any assay.
The answer is to be given in %; state only the numeric part.

Give the measured growth inhibition of `COc1cc(C)c(OC)c(C/C=C(\C)CC2=C(CC(C)(C)O)C(=O)[C@]3(C)CCC[C@]3(C)C2)c1` .
13.7

Give the measured growth inhibition of CS(=O)(=O)OC1COC(c2ccccc2)OC1C1OC(c2ccccc2)OCC1OS(C)(=O)=O (stereo not drawn) .
-31.9

Give the measured growth inhibition of CN(C)CCN1CCc2c([nH]c3ccccc23)C1c1cccnc1 (stereo not drawn) .
-4.2

Give the measured growth inhibition of `CCCCCCN(CCCCCC)C1=CC(=O)C(=O)c2ccccc21` .
48.4

Give the measured growth inhibition of `CCCCCCCCCCCc1cc(=O)c2c(O)cccc2o1` .
9.55

Give the measured growth inhibition of `Cc1cc(O)c([N+](=O)[O-])cc1C` .
-15.2

Give the measured growth inhibition of O=C1C2Nc3ccccc3N=C2OC1c1ccc(Cl)c(Cl)c1 (stereo not drawn) .
15.7

Give the measured growth inhibition of `C/C(=C/CCl)[N+](=O)[O-]` .
-4.95

Give the measured growth inhibition of CCN1C(=O)CC(SCCSC2CC(=O)N(CC)C2=O)C1=O (stereo not drawn) .
6.25

Give the measured growth inhibition of CC(=O)OCC1OC(n2ncnc2CBr)C(OC(C)=O)C(OC(C)=O)C1OC(C)=O (stereo not drawn) .
12.4

Give the measured growth inhibition of CCOC(=O)CCCC(NC(=O)c1ccc(N2CCN(c3c(N)nc(N)nc3NC)CC2)cc1)C(=O)OCC (stereo not drawn) .
-0.4

Give the measured growth inhibition of `CCOC(=O)C(C)(Cc1ccco1)C(=O)OCC` .
-5.2

Give the measured growth inhibition of CCC1C(C)C=CN1c1nc(N)nc(NS(=O)(=O)c2cc(C)c(Cl)cc2S)n1 (stereo not drawn) .
17.7

Give the measured growth inhibition of `CCOC(=O)/C(C#N)=C/c1ccc(Br)cc1` .
0.3

Give the measured growth inhibition of `COC(=O)c1ccc(/C=C2\CCc3ccccc3C2=O)cc1` .
-16.2

Give the measured growth inhibition of `Cc1cc2c3ccccc3n(C)c2c2c1C(=O)c1ccccc1C2=O` .
3.3

Give the measured growth inhibition of `O=c1cc[nH]c(=S)[nH]1.[Pt]` .
5.55

Give the measured growth inhibition of CS(=O)CCNC(=O)NS(=O)(=O)c1ccc(Cl)cc1 (stereo not drawn) .
-11.3

Give the measured growth inhibition of CNC(=O)CNC(=O)C(Cc1ccc(NC(=O)CCCCC(C)=O)cc1)NC(=O)C(CCC(=O)OCc1ccccc1)NC(=O)OC(C)(C)C (stereo not drawn) .
-26.1

Give the measured growth inhibition of `C[N+](C)(CCO)CCN1c2ccccc2Sc2ccccc21` .
10.2

Give the measured growth inhibition of `CN(C)C12CCC(c3ccccc31)c1ccccc12` .
27.4

Give the measured growth inhibition of `CC(=NCCN=C(C)c1ccccc1O)c1ccccc1O.[Cu]` .
2.25

Give the measured growth inhibition of `O=C(Nc1cccc(Cl)c1)Sc1c(Cl)c(Cl)c(Cl)c(Cl)c1Cl` .
26.4

====

For each record, write down the corresponding growth inhibition.
test: NCI Yeast Anticancer Drug Screen. Data for the cln2 rad14 strain (AID 165);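 also: 0% = growth equal to vehicle treated cultures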; conditions: S. cerevisiae cln2 rad14 strain, at 50.0 µM, stronger effect = higher value
About 79,000 compounds went through this panel and 15% of them were active in at least one assay; those are over-represented in the sample as a whole.
The answer is to be given in %; state only the numeric part.

Give the measured growth inhibition of `COC(=O)CCC(=O)NC1=C(NCc2ccccc2)C(=O)c2ccccc2C1=O` .
36

Give the measured growth inhibition of O=C(O)C1CCc2ccccc2C1 (stereo not drawn) .
-0.45

Give the measured growth inhibition of Cc1cc(N)c(NC2OC(CO)C(O)C2O)cc1C (stereo not drawn) .
-43.1

Give the measured growth inhibition of `Cc1ccc(NC(=O)/C(CC(=O)c2sc(Nc3ccccc3Cl)nc2C)=N\Nc2ccc([N+](=O)[O-])cc2[N+](=O)[O-])c(C)c1` .
-12.1

Give the measured growth inhibition of O=C(Nc1ccc([N+](=O)[O-])cc1)OC1CCS(=O)(=O)C1 (stereo not drawn) .
13.7

Give the measured growth inhibition of `COC(=O)NC1=Nc2ccccc2N(C(=O)Oc2ccccc2)S1` .
23.6

Give the measured growth inhibition of `O=C(O)CCc1ccc2c(c1)OCO2` .
-5.4

Give the measured growth inhibition of C=C(C)C(O)C(O)c1c(OC)ccc2ccc(=O)oc12 (stereo not drawn) .
14.1

Give the measured growth inhibition of `CC(C)(C)NC(=O)Oc1ccc2ccccc2c1` .
-84.9

Give the measured growth inhibition of `COc1ccc(C2=C(Cl)c3cc(OC)c(OC)cc3C2=O)cc1OC` .
-18.9

Give the measured growth inhibition of `O=C(O)c1cccc2c1CCCC2` .
0.05

Give the measured growth inhibition of `Cc1cc(N(CCC#N)CCC#N)ccc1/C=C(\NC(=O)/C=C/c1ccccc1)C(=O)Nc1ccc(Cl)cc1` .
1.7

Give the measured growth inhibition of `O=C(CSc1cc(Cl)c(Cl)cc1Cl)Nc1cccc(Cl)c1` .
-12.6

Give the measured growth inhibition of `CCN(CC)CCOc1ccc(Cc2nc3c([nH]2)c(=O)n(C)c(=O)n3C)cc1` .
34.5

Give the measured growth inhibition of COC1C(O)CC(OC2C(C)OC(Oc3cc(O)c4c(O)c5c(cc4c3)C[C@@H]([C@H](OC)C(=O)[C@@H](O)[C@@H](C)O)[C@H](OC3CC(OC4CC(OC6CC(C)(O)C(O)C(C)O6)C(O)C(C)O4)C(O)C(C)O3)C5=O)CC2OC(C)=O)OC1C (stereo partly drawn) .
10

Give the measured growth inhibition of COc1ccc(C2Cc3cc(OC)c(OC)cc3C(c3ccccc3)N2)cc1OC (stereo not drawn) .
12.5

Give the measured growth inhibition of CCS(=O)CCC(N)C(=O)O (stereo not drawn) .
-19.6

Give the measured growth inhibition of `O=C(Nc1ccc2ccccc2c1)C1CC1` .
-68.8

Give the measured growth inhibition of O=c1ccocc1OC1OC(CO)C(O)C(O)C1O (stereo not drawn) .
-1.35

Give the measured growth inhibition of `CCSc1n[nH]c(=O)nc1SC` .
-67

Give the measured growth inhibition of CCCCCCC(=O)CC1(C(=O)OC)NC(=S)NC(=O)C1C#N (stereo not drawn) .
-0.75

Give the measured growth inhibition of CCC1=Nc2ccccc2C(c2ccccc2)NC1=O (stereo not drawn) .
6

Give the measured growth inhibition of `Cc1c(C(=O)O)[nH]c2c(Cl)ccc(C)c2c1=O` .
-44.5
